# System: HCT116
# test: AC50 cell viability (CellTiter-Glo); higher = less potent
# applied conditions: 48 h
# Lookup of reported AC50 cell viability keyed by entry

- smiles structure: "COc1cc(C(=O)NC2CCN(C)CC2)c(F)cc1Nc1ncc2c(n1)N(C1CCCC1)CC(F)(F)C(=O)N2C"
  assay system: "HCT116"
  AC50 cell viability: "1.32 µM"
- smiles structure: "CCc1nc(C(N)=O)c(Nc2ccc(N3CCC(N4CCN(C)CC4)CC3)c(OC)c2)nc1NC1CCOCC1"
  assay system: "HCT116"
  AC50 cell viability: "1.66 µM"
- smiles structure: "C=CC(=O)Nc1ccc2ncnc(Nc3cccc(Br)c3)c2c1"
  assay system: "HCT116"
  AC50 cell viability: "13.2 µM"
- smiles structure: "CCCc1cc(C(=O)N[C@H](Cc2ccc(-c3cccc(OC(F)(F)F)c3)nc2)C(=O)N[C@@H]2CCNC2)sc1C"
  assay system: "HCT116"
  AC50 cell viability: "8.33 µM"

====

# Test system: HCT116;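 also: HCT116 colorectal carcinoma cells screened at five concentrations per compound, luminescent viability scaled between DMSO wells and empty wells on each plate, curves fitted per compound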
# test: AC50 cell viability (CellTiter-Glo); higher = less potent
# applied conditions: 48 h
Where a name gives a salt, the structure may show the parent alone.
Below, each entry is listed alongside its reported AC50 cell viability.

- compound: "CCCCc1oc2ccccc2c1C(=O)c1cc(I)c(OCCN(CC)CC)c(I)c1 [Amiodarone hydrochloride]"
  unit symbol: "µM"
  AC50 cell viability: 23.5
- compound: "CCC(CC)C(c1ccc(Nc2nc3ccccc3s2)cc1)n1cncn1 (stereo not drawn) [Talarozole (R enantiomer)]"
  unit symbol: "µM"
  AC50 cell viability: 20.9
- compound: "C=CCNC1=C2C[C@@H](C)C[C@H](OC)[C@H](O)[C@@H](C)/C=C(\\C)[C@H](OC(N)=O)[C@@H](OC)/C=C\\C=C(/C)C(=O)NC(=CC1=O)C2=O"
  unit symbol: "µM"
  AC50 cell viability: 3.72
- compound: "Cc1ccc(NC(=O)c2ccc(CN3CC[C@H](N(C)C)C3)c(C(F)(F)F)c2)cc1Nc1nccc(-c2cncnc2)n1"
  unit symbol: "µM"
  AC50 cell viability: 7.23
- compound: "O=C(N[C@H]1CCC[C@H](CO)C1)C1CCN(c2nc3cc(Cl)c(-c4ccc(Cl)cc4)cc3o2)CC1"
  unit symbol: "µM"
  AC50 cell viability: 23.5
- compound: "Cc1ccc(NC(=O)Nc2cc(C(F)(F)F)ccc2F)cc1Nc1ccc2c(c1)NC(=O)/C2=C\\c1ccc[nH]1"
  unit symbol: "µM"
  AC50 cell viability: 14.8
- compound: "CCC1=C[C@@H]2CN(C1)Cc1c([nH]c3ccccc13)[C@@](C(=O)OC)(c1cc3c(cc1OC)N(C)[C@H]1[C@@](O)(C(=O)OC)[C@H](OC(C)=O)[C@]4(CC)C=CCN5CC[C@]31[C@@H]54)C2 [Vinorelbine (ditartrate)]"
  unit symbol: "µM"
  AC50 cell viability: 0.129
- compound: "O=C1[C@H](Cc2ccc(O)cc2)N2C(=O)CCN(C(=O)NCc3ccccc3)[C@H]2CN1Cc1cccc2ccccc12"
  unit symbol: "µM"
  AC50 cell viability: 2.09
- compound: "Cc1cnc(Nc2ccc(F)cc2Cl)nc1-c1c[nH]c(C(=O)N[C@H](CO)c2cccc(Cl)c2)c1"
  unit symbol: "µM"
  AC50 cell viability: 4.17
- compound: "O=c1[nH]c2ccccc2n1C1CCN(Cc2ccc(-c3nc4cc5nc[nH]c5cc4nc3-c3ccccc3)cc2)CC1"
  unit symbol: "µM"
  AC50 cell viability: 16.6
- compound: "CO/C1=C/C(C)=C\\[C@@H](C)[C@@H](O)[C@@H](C)C/C(C)=C\\C=C/[C@H](OC)[C@@H]([C@@H](C)[C@@H](O)[C@H](C)[C@@]2(O)C[C@@H](O)[C@H](C)[C@@H](C(C)C)O2)OC1=O"
  unit symbol: "µM"
  AC50 cell viability: 0.035
- compound: "Cc1noc2c1-c1ccccc1C(c1ccc(Cl)cc1)=N[C@H]2CC(N)=O"
  unit symbol: "µM"
  AC50 cell viability: 1.05
- compound: "C[C@@H]1CC2C3C[C@H](F)C\\4=C\\C(=O)\\C=C/[C@]4(C)[C@@]3(F)[C@@H](O)C[C@]2(C)[C@@]1(OC(=O)C5=CC=CO5)C(=O)SCF (stereo partly drawn) [Fluticasone furoate]"
  unit symbol: "µM"
  AC50 cell viability: 20.9
